Data credit: patent US20160068605A1

- Assay System: T1, Recombinant human CD123 SP1 ECD-His tag protein (human, UniProt P26951 20-305)
- T1 construct: bought from R&D Systems (#301-R3/CF); biotinylated for some assays; also called rhCD123 SP1; huCD123 ECD SP1
- T1 sequence: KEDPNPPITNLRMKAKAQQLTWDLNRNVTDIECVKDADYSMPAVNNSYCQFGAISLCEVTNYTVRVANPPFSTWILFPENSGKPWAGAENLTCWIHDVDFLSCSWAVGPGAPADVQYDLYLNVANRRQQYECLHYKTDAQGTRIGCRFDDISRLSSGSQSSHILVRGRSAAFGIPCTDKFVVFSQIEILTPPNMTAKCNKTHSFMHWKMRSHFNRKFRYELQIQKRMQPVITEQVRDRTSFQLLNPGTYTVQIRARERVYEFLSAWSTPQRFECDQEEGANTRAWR
- Procedure Details: SPR Biacore 3000, captured Fab
As shown below, each of these binders has a reported pKd value.
Convention used: pKd is expressed as -log10 of the molar concentration.

I3RB119 (Fab, V domains shown, also called Fab I3RB119; I3RB18 Fab) VH: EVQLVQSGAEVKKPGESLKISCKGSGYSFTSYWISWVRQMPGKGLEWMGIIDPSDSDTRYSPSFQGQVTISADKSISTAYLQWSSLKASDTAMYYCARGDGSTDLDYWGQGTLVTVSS VL: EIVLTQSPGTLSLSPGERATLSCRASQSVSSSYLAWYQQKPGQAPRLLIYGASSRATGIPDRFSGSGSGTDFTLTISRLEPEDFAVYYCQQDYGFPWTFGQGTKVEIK: 8.74
I3RB120 (Fab, V domains shown, also called Fab I3RB120; I3RB2 Fab) VH: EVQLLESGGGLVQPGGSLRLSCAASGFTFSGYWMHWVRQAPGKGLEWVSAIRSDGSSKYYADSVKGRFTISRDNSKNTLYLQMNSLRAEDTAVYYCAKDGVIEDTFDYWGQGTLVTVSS VL: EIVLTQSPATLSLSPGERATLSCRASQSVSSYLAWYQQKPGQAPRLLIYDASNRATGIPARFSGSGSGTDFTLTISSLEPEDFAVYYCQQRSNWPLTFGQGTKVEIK: 8.07

We next turn to a different binder, shown below.
Input: Identify the reported pKd for the following entry. I3RB122 (Fab, V domains shown, also called Fab of I3RB37) VH: QVQLVQSGAEVKKPGSSVKVSCKASGGTFSSYAISWVRQAPGQGLEWMGGIIPIFGTANYAQKFQGRVTITADESTSTAYMELSSLRSEDTAVYYCARDKTDFPSRLDYWGQGTLVTVSS VL: DIQMTQSPSSLSASVGDRVTITCRASQSIATWLNWYQQKPGKAPKLLIYAASSLQSGVPSRFSGSGSGTDFTLTISSLQPEDFATYYCQQYITFPLTFGQGTKVEIK
Output: 7.94
